- System: EZH2
- measurement_notes: 3' UTR reporter interaction score (median-centred robust z-score of log2 firefly/Renilla activity); higher = less repression of the 3' UTR reporter
- cond: HEK293T; 48 h
result_type: 3' UTR reporter interaction score
Enter a number only.

Problem: Field request: 3' UTR reporter interaction score | item: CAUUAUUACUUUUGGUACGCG
Result: 0.119

Problem: Which 3' UTR reporter interaction score is listed for UAAGUGCUUCCAUGUUUUGGUGA ?
Result: -0.457

Problem: Recorded 3' UTR reporter interaction score of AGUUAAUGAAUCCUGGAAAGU , please.
Result: -0.175

Problem: # input sequence: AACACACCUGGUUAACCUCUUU ; wanted: its 3' UTR reporter interaction score
Result: 0.419

Problem: Name the recorded 3' UTR reporter interaction score for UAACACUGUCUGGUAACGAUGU .
Result: -0.274

Problem: I would be grateful if you could share the reported 3' UTR reporter interaction score for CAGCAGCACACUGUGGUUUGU .
Result: -1.21

Problem: Need 3' UTR reporter interaction score, item UCUAGUAAGAGUGGCAGUCG
Result: -0.108

Problem: Given the entry UAGGUAGUUUCCUGUUGUUGG , report its measured 3' UTR reporter interaction score.
Result: 0.324

Problem: // 3' UTR reporter interaction score lookup, key: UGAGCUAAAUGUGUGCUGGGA
Result: 0.105

Problem: Dear colleague, I am looking for the recorded 3' UTR reporter interaction score of the following sequence: UCACAGUGAACCGGUCUCUUUU
Result: 0.47

Problem: Item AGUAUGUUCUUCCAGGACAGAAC has what recorded 3' UTR reporter interaction score?
Result: 0.482

Problem: Which value of 3' UTR reporter interaction score has been reported for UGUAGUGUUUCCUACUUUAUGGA in the records?
Result: 0.133

Problem: For the sequence shown here, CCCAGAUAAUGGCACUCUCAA , give the reported 3' UTR reporter interaction score.
Result: 0.0427

Problem: Looking for the measured 3' UTR reporter interaction score of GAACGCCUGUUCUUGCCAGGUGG , can you help?
Result: 1.05

Problem: May I ask what 3' UTR reporter interaction score has been recorded for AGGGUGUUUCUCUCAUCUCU ?
Result: -0.619

Problem: I am curious: what 3' UTR reporter interaction score value has been reported for AGUGACAUCACAUAUACGGCAGC ?
Result: -0.788

Problem: Data request, read-out 3' UTR reporter interaction score, for UCGGGGAUCAUCAUGUCACGAG
Result: -0.077

Problem: Can you share its 3' UTR reporter interaction score? I mean this sequence: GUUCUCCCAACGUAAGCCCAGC
Result: 0.22

###

- Tested on: FBXW7
- measurement_notes: 3' UTR reporter interaction score (median-centred robust z-score of log2 firefly/Renilla activity); higher = less repression of the 3' UTR reporter
- cond: HEK293T; 48 h
Output Condition met for 3' UTR reporter interaction score not less than 0.07; output Condition not met otherwise.

Problem: Given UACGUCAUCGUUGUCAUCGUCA , state whether its 3' UTR reporter interaction score is at least 0.07.
Result: Condition met

Problem: Determine whether this sequence has 3' UTR reporter interaction score no lower than 0.07: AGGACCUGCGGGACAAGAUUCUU
Result: Condition not met

Problem: Textbook exercise: given the entry CAACGGAAUCCCAAAAGCAGCU , state whether its 3' UTR reporter interaction score is greater than or equal to 0.07.
Result: Condition not met

Problem: Please tell me: is the sequence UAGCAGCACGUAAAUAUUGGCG at or over 0.07 in terms of 3' UTR reporter interaction score?
Result: Condition not met

Problem: Threshold query (3' UTR reporter interaction score >= 0.07) on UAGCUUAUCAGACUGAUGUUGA
Result: Condition not met

Problem: State whether the measured 3' UTR reporter interaction score reaches 0.07, counting equality as reaching it, for ACUUGUAUGCUAGCUCAGGUAG
Result: Condition met

Problem: API: above_or_equal(metric=3' UTR reporter interaction score, cutoff=0.07) for item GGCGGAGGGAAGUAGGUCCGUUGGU
Result: Condition not met

Problem: hey, is 3' UTR reporter interaction score for this one >= 0.07? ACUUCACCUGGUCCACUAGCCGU
Result: Condition not met

Problem: Answer whether 3' UTR reporter interaction score of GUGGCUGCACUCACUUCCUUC is greater than or equal to 0.07.
Result: Condition met

Problem: # check: 3' UTR reporter interaction score of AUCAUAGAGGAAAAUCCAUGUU is greater than or equal to 0.07
Result: Condition not met

###

- Tested on: TP53
- measurement_notes: 3' UTR reporter interaction score (median-centred robust z-score of log2 firefly/Renilla activity); higher = less repression of the 3' UTR reporter
- cond: HEK293T; 48 h
result_type: 3' UTR reporter interaction score
Form field (numeric): enter value without unit.

Problem: # input sequence: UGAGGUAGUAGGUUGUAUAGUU ; wanted: its 3' UTR reporter interaction score
Result: 0.766

Problem: Quick check: 3' UTR reporter interaction score of UGUGCUUGCUCGUCCCGCCCGCAG ?
Result: -0.328

Problem: Which 3' UTR reporter interaction score value is on record for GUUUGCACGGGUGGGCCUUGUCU ?
Result: -0.225

Problem: What value of 3' UTR reporter interaction score has been reported for the following sequence? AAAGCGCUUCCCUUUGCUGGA
Result: -1.12

Problem: Endpoint output: 3' UTR reporter interaction score of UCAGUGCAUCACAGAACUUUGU . Value?
Result: -0.15

Problem: 3' UTR reporter interaction score lookup needed for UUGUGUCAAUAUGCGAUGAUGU , thanks.
Result: -0.384

Problem: Field request: 3' UTR reporter interaction score | item: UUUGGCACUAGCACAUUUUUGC
Result: -0.115

Problem: Fill in: 3' UTR reporter interaction score of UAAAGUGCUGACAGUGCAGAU is ___
Result: -0.0101

Problem: For the sequence shown here, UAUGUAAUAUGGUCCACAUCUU , give the reported 3' UTR reporter interaction score.
Result: -0.793

Problem: Name the recorded 3' UTR reporter interaction score for AGGAAGCCCUGGAGGGGCUGGAGGU .
Result: 0.127

Problem: Entry under review: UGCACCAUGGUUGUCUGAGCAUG . Reported 3' UTR reporter interaction score?
Result: 0.617

Problem: Look up 3' UTR reporter interaction score for this sequence: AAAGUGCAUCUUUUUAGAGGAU
Result: 1.24

Problem: Bench note: what 3' UTR reporter interaction score did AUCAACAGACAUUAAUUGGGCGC show?
Result: -1.55

Problem: Quick check: 3' UTR reporter interaction score of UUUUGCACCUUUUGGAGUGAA ?
Result: 0.767

Problem: Value lookup for 3' UTR reporter interaction score; key = AGAGGUAGUAGGUUGCAUAGU
Result: 0.943

Problem: Query (sequence): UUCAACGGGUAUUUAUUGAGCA ; field requested: 3' UTR reporter interaction score
Result: 0.52

Problem: Which 3' UTR reporter interaction score is reported for this sequence? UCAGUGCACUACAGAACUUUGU
Result: -0.523

Problem: Please look up its 3' UTR reporter interaction score: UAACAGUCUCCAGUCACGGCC
Result: -0.811

Problem: 3' UTR reporter interaction score for UUAAGGCACGCGGUGAAUGCCA ?
Result: 0.35

Problem: // returns reported 3' UTR reporter interaction score for input UUAAUGCUAAUCGUGAUAGGGG
Result: 0.0933

Problem: Which 3' UTR reporter interaction score value is on record for AGACCCUGGUCUGCACUCUAU ?
Result: -5.07

Problem: # get_value(readout='3' UTR reporter interaction score', item= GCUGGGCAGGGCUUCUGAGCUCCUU )
Result: -0.0785

###

- Tested on: NOTCH1
- measurement_notes: 3' UTR reporter interaction score (median-centred robust z-score of log2 firefly/Renilla activity); higher = less repression of the 3' UTR reporter
- cond: HEK293T; 48 h
result_type: 3' UTR reporter interaction score

Problem: Requested read-out: 3' UTR reporter interaction score. Entry: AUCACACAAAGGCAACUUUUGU
Result: 0.929

Problem: What value of 3' UTR reporter interaction score has been recorded for this entry: UUAAGACUUGCAGUGAUGUUUAA
Result: 0.344

Problem: Given the sequence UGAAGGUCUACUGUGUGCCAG , what is its reported 3' UTR reporter interaction score?
Result: -0.37

Problem: Bench note: what 3' UTR reporter interaction score did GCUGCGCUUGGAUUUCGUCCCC show?
Result: 2.01

Problem: So what does the record say about 3' UTR reporter interaction score for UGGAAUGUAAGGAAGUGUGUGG ?
Result: -0.967

Problem: Fill in the blank: the reported 3' UTR reporter interaction score of AGGUUGACAUACGUUUCCC is ____.
Result: 1.09

Problem: What measured 3' UTR reporter interaction score goes with UCAGUCUCAUCUGCAAAGAAG ?
Result: -1.13

Problem: Which 3' UTR reporter interaction score value is on record for CGAAUGUUGCUCGGUGAACCCCU ?
Result: 1.32

Problem: Tell me the measured 3' UTR reporter interaction score of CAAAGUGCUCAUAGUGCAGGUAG , please.
Result: 1.52
